# ASSAY OVERVIEW: in vivo
# CONDITIONS: male, SD, rat, iv, 1 mg/kg
REPORTED ENDPOINT: half-life

COMPOUND | OBSERVED MEASUREMENT
CCCCOc1nc(N)c2[nH]cc(Cc3ccc(CN4CCCC4)cc3)c2n1 [Example 21] | 5.76 h

* * *

# ASSAY OVERVIEW: in vivo
# CONDITIONS: male, SD, rat, po, 5 mg/kg, 0.5 h
Listed next: entries and their corresponding Mean plasma drug concentration.

COMPOUND | Mean plasma drug concentration, µM
CCCCOc1nc(N)c2c(n1)N(Cc1cccc(CN3CCCC3)c1)CC(=O)N2 [GS-9620, reference compound] | 0.0332
CCCCOc1nc(N)c2[nH]cc(Cc3ccc(CN4CCCC4)cc3)c2n1 | 0.0416
